system: BDF1 mice, colon carcinoma 38 sc, T/C %; assay: NCI In Vivo Anticancer Drug Screen. Data for tumor model Colon Carcinoma 38 (subcutaneous) in B6D2F1 (BDF1) mice; conditions: endpoint: median tumor weight (est.); dose: 100.0 mg/kg/injection; schedule: Q07DX002 (ip); vehicle: saline with Tween-80; higher = larger tumour
Records with an inconclusive call do not appear.
Give T/C for every item shown.

Use these answered entries as a reference point.
CCN(CC)CCOC(=O)Cc1cccc2c(=O)cc(-c3ccc(Cl)cc3)oc12 | 48 % of control
O=c1[nH]c(=O)n(C2CC(O)C(CO)O2)cc1I (stereo unspecified) | 69 % of control
NCC1CCC(C(=O)O)CC1 (stereo unspecified) | 99 % of control

Give me T/C for each of these molecules, listed below.
1. C[C@@H]1C[C@@H]([C@H](O)CC2CC(=O)NC(=O)C2)C(=O)[C@@H](C)C1
2. O=Cc1ccc(C(Cl)(Cl)Cl)cc1

Output:
1. 90 % of control
2. 93 % of control

Task: Please indicate T/C recorded for COC1=C(OC)C(=O)C(SC/C=C(\C)CCCC(C)CCCC(C)CCCC(C)C)=CC1=O (stereo unspecified)
Output: 116 % of control

Reference for the values: PubChem BioAssay AID212
